Test system: H1838 cells (human non-small cell lung cancer cell line)
Test: Inhibition of cell proliferation, xCelligence cell index
Format: cell-based
Settings: NCI-H1838, 72 hr post compound treatment, read-out: calculated IC50
Counter-ions that a name gives are not always drawn.
reported.property: IC50 (nM)

[a] CCc1ccc(Nc2nc(-c3c(C)nc4sccn34)cs2)cc1 [COMPOUND O, monohydrobromide]
[b] CC[C@]1(O)C[C@H]2CN(CCc3c([nH]c4ccccc34)[C@@](C(=O)OC)(c3cc4c(cc3OC)N(C=O)[C@H]3[C@@](O)(C(=O)OC)[C@H](OC(C)=O)[C@]5(CC)C=CCN6CC[C@]43[C@@H]65)C2)C1
Hi, I'm comparing a with b and wondering which one has the bigger number for IC50. Any idea? Response format: the label of the selected entry.
a
(a: 11.8 nM, b: 3.16 nM)

----------
Test system: B×PC3 cells (human pancreatic cancer cell line)
Test: Inhibition of cell proliferation, xCelligence cell index
Format: cell-based
Conditions: 72 hr post compound treatment, read-out: calculated IC50
Counter-ions that a name gives are not always drawn.
reported.property: IC50 (nM)

- compound: "CC(=O)O[C@H]1C(=O)[C@@]2(C)[C@H]([C@H](OC(=O)c3ccccc3)[C@]3(O)C[C@H](OC(=O)[C@H](O)[C@@H](NC(=O)c4ccccc4)c4ccccc4)C(C)=C1C3(C)C)[C@]1(OC(C)=O)CO[C@@H]1C[C@@H]2O"
  IC50 / nM: 8.86

[1] CCc1ccc(Nc2nc(-c3c(C)nc4sccn34)cs2)cc1 [COMPOUND O, monohydrobromide]
[2] CC[C@]1(O)C[C@H]2CN(CCc3c([nH]c4ccccc34)[C@@](C(=O)OC)(c3cc4c(cc3OC)N(C=O)[C@H]3[C@@](O)(C(=O)OC)[C@H](OC(C)=O)[C@]5(CC)C=CCN6CC[C@]43[C@@H]65)C2)C1
Lab note: record which item had the higher IC50, 1 or 2 . Select an item and report its label.
1
(1: 6.6 nM, 2: 4.06 nM)

----------
Tested on: A172 cells (human brain cancer cell line)
Test: Inhibition of cell proliferation, xCelligence cell index
Format: cell-based
Settings: A 172, 72 hr post compound treatment, read-out: calculated IC50
Counter-ions that a name gives are not always drawn.
reported.property: IC50 (nM)

[A] CC[C@]1(O)C[C@H]2CN(CCc3c([nH]c4ccccc34)[C@@](C(=O)OC)(c3cc4c(cc3OC)N(C=O)[C@H]3[C@@](O)(C(=O)OC)[C@H](OC(C)=O)[C@]5(CC)C=CCN6CC[C@]43[C@@H]65)C2)C1 [vincristine]
[B] CC(=O)O[C@H]1C(=O)[C@@]2(C)[C@H]([C@H](OC(=O)c3ccccc3)[C@]3(O)C[C@H](OC(=O)[C@H](O)[C@@H](NC(=O)c4ccccc4)c4ccccc4)C(C)=C1C3(C)C)[C@]1(OC(C)=O)CO[C@@H]1C[C@@H]2O [paclitaxel]
[C] CCc1ccc(Nc2nc(-c3c(C)nc4sccn34)cs2)cc1 [COMPOUND O, monohydrobromide]
Rank order required: IC50, descending. Put the labels in the requested order and list them out.
C, B, A

----------
Test system: H596 cells (human adenosquamous lung carcinoma cell line)
Assay: Inhibition of cell proliferation, xCelligence cell index
Type: cell-based
Details: NCI-H596, 72 hr post compound treatment, read-out: calculated IC50
pIC50: −log10 of the molar value. Structures can show the parent of a compound that is named as a salt.
reported.property: pIC50

- molecule: "CCc1ccc(Nc2nc(-c3c(C)nc4sccn34)cs2)cc1 [COMPOUND O, monohydrobromide]"
  value.observed: 7.42

[P] CC(=O)O[C@H]1C(=O)[C@@]2(C)[C@H]([C@H](OC(=O)c3ccccc3)[C@]3(O)C[C@H](OC(=O)[C@H](O)[C@@H](NC(=O)c4ccccc4)c4ccccc4)C(C)=C1C3(C)C)[C@]1(OC(C)=O)CO[C@@H]1C[C@@H]2O [paclitaxel]
[Q] CC[C@]1(O)C[C@H]2CN(CCc3c([nH]c4ccccc34)[C@@](C(=O)OC)(c3cc4c(cc3OC)N(C=O)[C@H]3[C@@](O)(C(=O)OC)[C@H](OC(C)=O)[C@]5(CC)C=CCN6CC[C@]43[C@@H]65)C2)C1 [vincristine]
Lowest pIC50? choose P or Q Answer = label.
Q
(Q: 7.43, P: 7.90)
